Test system: Rattus norvegicus
PROTOCOL CONDITIONS: acute; oral; gavage; Sprague-Dawley
RESULT TYPE: log10 LD50 (log10 of the value in mg/kg)
Scale type: logarithmic (base 10). Underlying LD50 unit: mg/kg.

COMPOUND: c1ccc(B(c2ccccc2)c2ccccc2)cc1 [Triphenylborane]
log10 LD50: 2.29
--
COMPOUND: CCCCCCCCCCc1cccc(Oc2ccccc2S(=O)(=O)[O-])c1S(=O)(=O)[O-].[Na+].[Na+] [Disodium n-decyldiphenyl ether disulfonate]
log10 LD50: 3.55
--
COMPOUND: CC(C)(c1ccccc1)c1ccc(O)cc1 [4-Cumylphenol]
log10 LD50: 3.25
--
COMPOUND: CN(C)C(=S)SSC(=S)N(C)C [Bis(dimethylaminothiocarbonyl) disulfide]
log10 LD50: 3.03
--
COMPOUND: O.O.O=c1nc([O-])n(Cl)c(=O)n1Cl.[Na+] [Sodium dichloroisocyanurate dihydrate]
log10 LD50: 3.26
--
COMPOUND: O=c1n(CC2CO2)c(=O)n(CC2CO2)c(=O)n1CC1CO1 (configuration not stated) [Tris(2,3-epoxypropyl)isocyanurate]
log10 LD50: 2.65

Next compound, log10 LD50 to be filled in.
So for CCCCCCC1C=CC(CCCCCCCC(=O)O)CC1C(=O)O (configuration not stated) [5(6)-Carboxy-4-hexyl-2-cyclohexene-1-octanoic acid] , the logged log10 LD50 turned out to be 3.79

---

Test system: Neovison sp.
PROTOCOL CONDITIONS: repeat dose other; oral; Mink
RESULT TYPE: NOAEL (mg/kg-day)
Form entry: value (mg/kg-day) — number only.

COMPOUND: [F-].[Na+] [Sodium fluoride]
TARGET OR TEST SYSTEM: Neovison sp.
RESULT TYPE: NOAEL
MEAS VALUE: 31.4

So for [Cl][Hg][Cl] [Mercuric chloride] , the logged NOAEL turned out to be 1

So for Cc1ccccc1O [o-Cresol] , the logged NOAEL turned out to be 219

So for ClC1=C(Cl)C2(Cl)C3C(Cl)C=CC3C1(Cl)C2(Cl)Cl (centres undefined) [Heptachlor] , the logged NOAEL turned out to be 0.1

---

Reported NOAEL values for a set of compounds
System: Rattus norvegicus
PROTOCOL CONDITIONS: repeat dose other; oral
Form entry: value (mg/kg-day) — number only.

COMPOUND: [Cl-].[Cl-].[Sr+2] [Strontium chloride]
RESULT TYPE: NOAEL
MEAS VALUE: 263

Next compound, NOAEL to be filled in.
So for [Mn+2].[Mn+3].[Mn+3].[O-2].[O-2].[O-2].[O-2] [Manganese oxide (Mn3O4)] , the logged NOAEL turned out to be 88

---

System: Rattus norvegicus
PROTOCOL CONDITIONS: subchronic; duration: 90 days; oral; gavage; Sprague-Dawley
RESULT TYPE: NOAEL (mg/kg-day)
Form entry: value (mg/kg-day) — number only.

COMPOUND: Clc1cccc(Cl)c1
NOAEL, mg/kg-day: 37
//
COMPOUND: O=C([O-])CCCCCCCC(=O)[O-].[Li+].[Li+] [Nonanedioic acid, dilithium salt]
NOAEL, mg/kg-day: 1000

Next compound, NOAEL to be filled in.
So for CC1COC(=O)O1 (centres undefined) [Propylene carbonate] , the logged NOAEL turned out to be 5000

---

Reported LC50 values for a set of compounds
Test system: Rattus norvegicus
PROTOCOL CONDITIONS: acute; inhalation

Solved cases below.
COMPOUND: C1OCOCO1
TARGET OR TEST SYSTEM: Rattus norvegicus
LC50: > 39200 mg/m3
--
COMPOUND: CN(C)CCN(C)C
TARGET OR TEST SYSTEM: Rattus norvegicus
LC50: > 5610 mg/m3
--
COMPOUND: C=C(C)C(=O)OCCN(C)C [2-(Dimethylamino)ethyl methacrylate]
TARGET OR TEST SYSTEM: Rattus norvegicus
LC50: 0.62 mg/L
--
COMPOUND: C1CCNCC1
TARGET OR TEST SYSTEM: Rattus norvegicus
LC50: > 6970 mg/m3
--
COMPOUND: CC1(C)NC(=O)NC1=O
TARGET OR TEST SYSTEM: Rattus norvegicus
LC50: > 14.7 mg/L

Next compound, LC50 to be filled in.
So for "CCNc1cccc(C)c1" , the logged LC50 turned out to be 2.4 mg/L

---

Reported NOAEL values for a set of compounds
Tested on: Mus musculus
PROTOCOL CONDITIONS: repeat dose other; oral
Form entry: value (mg/kg-day) — number only.

So for [Mo].[O-2].[O-2].[O-2].[O-2] [Tetraoxomolybdate(2-)] , the logged NOAEL turned out to be 0.26

So for "ClC=C(Cl)Cl" , the logged NOAEL turned out to be 0.7

So for c1ccc2c(c1)cc1ccc3cccc4ccc2c1c34 [Benzo[a]pyrene] , the logged NOAEL turned out to be 1

So for CCCCC(CC)COC(=O)c1ccccc1C(=O)OCC(CC)CCCC (centres undefined) [Di(2-ethylhexyl) phthalate] , the logged NOAEL turned out to be 18.3

---

System: Oryctolagus sp.
PROTOCOL CONDITIONS: acute; dermal; New Zealand
RESULT TYPE: LD50

Solved cases below.
COMPOUND: CC1(C)NC(=O)NC1=O
RESULT TYPE: LD50
MEAS VALUE: > 20000 mg/kg

COMPOUND: CN(C)CCN(C)C
RESULT TYPE: LD50
MEAS VALUE: 1230 mg/kg

COMPOUND: CCCCCCCCCCCCCCCCCCOP1OCC2(CO1)COP(OCCCCCCCCCCCCCCCCCC)OC2 (stereo not drawn)
RESULT TYPE: LD50
MEAS VALUE: > 2000 mg/kg

COMPOUND: CCNc1cccc(C)c1
RESULT TYPE: LD50
MEAS VALUE: > 2000 mg/kg

COMPOUND: CC(C)CCCCCCc1cccc2c(CCCCCCC(C)C)cccc12
RESULT TYPE: LD50
MEAS VALUE: > 20000 mg/kg

COMPOUND: CC(C)[N+](=O)[O-]
RESULT TYPE: LD50
MEAS VALUE: > 2000 mg/kg

COMPOUND: CN(C)C(=S)SSC(=S)N(C)C [Bis(dimethylaminothiocarbonyl) disulfide]
RESULT TYPE: LD50
MEAS VALUE: > 7940 mg/kg

Next compound, LD50 to be filled in.
Given the compound "CC(CO)CO" and test system Oryctolagus sp., the measured LD50 is > 2000 mg/kg

---

Reported LD50 values for a set of compounds
System: Rattus norvegicus
PROTOCOL CONDITIONS: acute; oral
Where a name gives a salt, the structure may show the parent alone.
Form entry: value (mg/kg) — number only.

COMPOUND: CCCCCCCCCCCCOCCOS(=O)(=O)[O-].[Na+]
LD50, mg/kg: 1600
--
COMPOUND: Cc1ccc(C)c(O)c1 [2,5-Dimethylphenol]
LD50, mg/kg: 444
--
COMPOUND: CC(C)(C)C1CCC(O)CC1 (centres undefined) [4-tert-Butylcyclohexanol]
LD50, mg/kg: 4200
--
COMPOUND: CCCCC(CC)COP(=O)(O)OCC(CC)CCCC (centres undefined) [Bis(2-ethylhexyl) phosphate]
LD50, mg/kg: 4740
--
COMPOUND: O=C(Cl)C(Cl)Cl [Dichloroacetyl chloride]
LD50, mg/kg: 2460

So for CCCCCCCCCCCCCCCCCC(=O)O [Octadecanoic acid] , the logged LD50 turned out to be 4600

So for CCOS(=O)(=O)OCC [Ethyl sulfate (Et2SO4)] , the logged LD50 turned out to be 880

So for CCCCN(CCCC)C(=S)SCSC(=S)N(CCCC)CCCC [4,4'-Methylene bis(dibutyldithiocarbamate)] , the logged LD50 turned out to be 16000

---

System: Rattus norvegicus
PROTOCOL CONDITIONS: acute; oral; gavage
Reported log10 of LD50 values for a set of compounds
Scale type: logarithmic (base 10). Underlying LD50 unit: mg/kg.

Solved cases below.
COMPOUND: Clc1ccccn1
log10 of LD50: 2.53

COMPOUND: C1OCOCO1
log10 of LD50: 3.91

COMPOUND: OCCN1CCNCC1
log10 of LD50: 3.30

COMPOUND: O=C(OCC1CC=CCC1)C1CC=CCC1 (centres undefined)
log10 of LD50: 3.45

Next compound, log10 of LD50 to be filled in.
Given the compound CC(O)CN(CCN(CC(C)O)CC(C)O)CC(C)O (centres undefined) [1,1',1'',1'''-(Ethylenedinitrilo)tetrakis(2-propanol)] and test system Rattus norvegicus, the measured log10 of LD50 is 4.05

---

Test system: Oryctolagus sp.
PROTOCOL CONDITIONS: acute; dermal; occlusive; New Zealand
RESULT TYPE: LD50

Solved cases below.
MOLECULE: O=C(O)CCCC(=O)O
LD50: > 10000 mg/kg

MOLECULE: O=C(O)CCCCC(=O)O
LD50: > 7940 mg/kg

MOLECULE: CN1C(=O)c2ccccc2C1=O [N-Methylphthalimide]
LD50: > 2000 mg/kg

Given the molecule "CC1(C)NC(=O)NC1=O" and test system Oryctolagus sp., the measured LD50 is > 3000 mg/kg

Given the molecule CC1COC(=O)O1 (configuration not stated) [Propylene carbonate] and test system Oryctolagus sp., the measured LD50 is > 3000 mg/kg

Given the molecule CCCCC(CC)COP(=O)(O)OCC(CC)CCCC (configuration not stated) [Bis(2-ethylhexyl) phosphate] and test system Oryctolagus sp., the measured LD50 is > 2000 mg/kg

Given the molecule "CC(C)(N=C=O)c1cccc(C(C)(C)N=C=O)c1" and test system Oryctolagus sp., the measured LD50 is > 2000 mg/kg
